- SYSTEM NAME: ENPP-1 ECD (Homo sapiens (Human), UniProt P22413)
- Sequence (P22413 98-925): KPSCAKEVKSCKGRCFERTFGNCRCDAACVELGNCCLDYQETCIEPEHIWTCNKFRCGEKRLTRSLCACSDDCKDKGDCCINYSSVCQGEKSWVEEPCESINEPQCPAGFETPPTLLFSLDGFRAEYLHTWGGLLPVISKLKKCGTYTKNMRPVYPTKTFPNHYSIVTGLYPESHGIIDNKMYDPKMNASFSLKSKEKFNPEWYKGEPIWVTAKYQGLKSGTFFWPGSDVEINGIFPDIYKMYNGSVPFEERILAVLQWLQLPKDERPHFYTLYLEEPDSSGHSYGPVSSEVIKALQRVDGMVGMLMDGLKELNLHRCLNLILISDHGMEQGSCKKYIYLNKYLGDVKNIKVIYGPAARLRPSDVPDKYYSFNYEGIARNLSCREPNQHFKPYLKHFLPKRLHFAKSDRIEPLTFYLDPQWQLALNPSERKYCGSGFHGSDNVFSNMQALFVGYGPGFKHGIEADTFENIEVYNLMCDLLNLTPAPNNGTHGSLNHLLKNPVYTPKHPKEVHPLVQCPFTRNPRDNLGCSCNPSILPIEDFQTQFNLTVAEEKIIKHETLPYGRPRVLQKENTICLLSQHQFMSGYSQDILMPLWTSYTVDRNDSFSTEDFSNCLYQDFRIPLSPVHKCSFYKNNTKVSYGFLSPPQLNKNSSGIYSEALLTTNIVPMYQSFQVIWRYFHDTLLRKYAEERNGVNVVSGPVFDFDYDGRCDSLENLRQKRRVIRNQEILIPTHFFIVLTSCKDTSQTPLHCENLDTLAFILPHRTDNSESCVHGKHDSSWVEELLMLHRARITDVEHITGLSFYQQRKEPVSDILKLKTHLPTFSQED
- ASSAY PROTOCOL: Assay 2: inhibition of ENPP1 hydrolysis of 2′,3′-cGAMP (AMP-Glo, […] enzyme)
- RECORDED CONDITIONS: Assay 2 (KI), inhibition of ENPP1 hydrolysis of 2′,3′-cGAMP; no unit in Table 18 (Table 17 legend for this assay uses nM)
Please provide measured Ki for the entries that follow.
Numbers only, in nM.

Record excerpt, results attached:
COc1ccc2c(O[C@H]3CC[C@H](S(C)(=N)=O)CC3)ccnc2c1 (some centres unmarked) ... 4.3
COc1cc2nccc(Oc3ccc([S@@](C)(=N)=O)cc3)c2cc1OC ... 0.87
COc1cccc2c(N3CCC4(CC3)CCN(S(C)(=N)=O)C4)ncnc12 (centres unmarked) ... 3.8
COc1cc2ncc(C#N)c(N3CCC(CCS(C)(=N)=O)CC3)c2cc1OC (centres unmarked) ... 0.28

// next item, Ki requested
Entry COc1cc2nccc(N3CCC(CCS(C)(=N)=O)CC3)c2cc1Cl (centres unmarked) has what Ki? 0.25

###

- SYSTEM NAME: ENPP1 on MDA-MB-231 cells (Homo sapiens (Human))
- Sequence (P22413 whole entry): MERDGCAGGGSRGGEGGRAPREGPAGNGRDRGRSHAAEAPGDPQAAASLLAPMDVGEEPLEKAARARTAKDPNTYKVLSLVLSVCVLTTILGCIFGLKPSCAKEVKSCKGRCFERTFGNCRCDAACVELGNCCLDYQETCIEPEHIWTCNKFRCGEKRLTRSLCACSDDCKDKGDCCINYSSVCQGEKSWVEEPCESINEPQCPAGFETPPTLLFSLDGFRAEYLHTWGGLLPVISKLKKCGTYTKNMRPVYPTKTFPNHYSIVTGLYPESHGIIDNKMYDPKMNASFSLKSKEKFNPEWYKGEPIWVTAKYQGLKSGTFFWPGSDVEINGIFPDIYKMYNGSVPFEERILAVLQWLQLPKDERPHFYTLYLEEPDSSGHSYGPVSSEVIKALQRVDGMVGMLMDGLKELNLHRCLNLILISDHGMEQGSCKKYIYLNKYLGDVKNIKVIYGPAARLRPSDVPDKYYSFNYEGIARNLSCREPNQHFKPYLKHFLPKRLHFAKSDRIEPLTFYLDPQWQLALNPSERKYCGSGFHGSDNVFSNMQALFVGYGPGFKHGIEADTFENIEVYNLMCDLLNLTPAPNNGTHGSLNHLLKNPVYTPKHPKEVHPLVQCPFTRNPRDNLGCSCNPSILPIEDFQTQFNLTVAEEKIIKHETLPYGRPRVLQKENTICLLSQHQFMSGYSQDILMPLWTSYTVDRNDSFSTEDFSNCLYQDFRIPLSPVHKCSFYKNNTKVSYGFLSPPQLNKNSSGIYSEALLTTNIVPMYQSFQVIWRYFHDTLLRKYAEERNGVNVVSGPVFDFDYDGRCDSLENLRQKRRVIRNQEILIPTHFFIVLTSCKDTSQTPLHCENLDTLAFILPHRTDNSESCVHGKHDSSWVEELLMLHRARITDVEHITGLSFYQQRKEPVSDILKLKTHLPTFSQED
- ASSAY PROTOCOL: Assay 3: inhibition of ENPP1 hydrolysis of AMP p-nitrophenyl ester on MDA-MB-231 cells
- RECORDED CONDITIONS: read-out: Assay 3 (KI, app); apparent KI from IC50 via Cheng/Prusoff; pNP-AMP […], MDA-MB-231 cells, pH 7.4, 37° C., 3 h; unit inferred
Please provide measured pKi for the entries that follow.
Numbers only, as −log10 of the molar value.

Record excerpt, results attached:
COc1cc2nccc(N3CCC4(CC3)CCN([S@](C)(=N)=O)C4)c2cc1OC [Compound 208b] ... 9.80
COc1cccc2c(N3CCC(C[S@](=N)(=O)C4CC4)CC3)c(C#N)cnc12 [Compound 189b] ... 9.51
COc1cc2nccc(N3CCC(CC[S@@](C)(=N)=O)CC3)c2cc1Cl [Compound 141a] ... 7.55
COc1cc2nncc(N3CCC4(CC3)CCN([S@](C)(=N)=O)C4)c2cc1Cl [Compound 219a] ... 8.92
COc1ccc2c(OCc3cc(F)cc([S@](C)(=N)=O)c3)ccnc2c1 [Compound 177b] ... 9.32
COc1cccc2c(N3CCC4(C3)CN([S@](C)(=N)=O)C4)ncnc12 [Compound 223a] ... 8.51
CC[S@](=N)(=O)c1ccc(Oc2ccnc3cc(OC)ccc23)cc1 [Compound 103b] ... 7.52
COc1cccc2c(N3CC4(CCN([S@@](C)(=N)=O)C4)C3)c(C#N)cnc12 [Compound 222a] ... 8.92
COc1cccc2c(N3CCC4(C3)CN([S@@](C)(=N)=O)C4)ncnc12 [Compound 223b] ... 6.34
COc1cc2nccc(Oc3ccc([S@@](=N)(=O)C4CC4)cc3)c2cc1F [Compound 120a] ... 8.19

I need pKi for every entry listed below, if you could help.
1. COc1cc2nccc(OCc3cccc([S@](C)(=N)=O)c3)c2cc1F [Compound 169b]
2. COc1cc2nccc(N3CC4(CC(C[S@](C)(=N)=O)C4)C3)c2cc1F [Compound 184b]
3. COc1cc2ncnc(N3CCC4(CC3)CCN([S@@](C)(=N)=O)C4)c2cc1OC [Compound 54a]
4. COc1cccc2c(N3CCC(O)(C[S@@](C)(=N)=O)CC3)c(C#N)cnc12 [Compound 198a]
5. COc1cc2nccc(N3CC4(CC(C[S@@](C)(=N)=O)C4)C3)c2cc1F [Compound 184a]
6. COc1ccc2c(OCc3cccc(S(C)(=N)=O)c3)ncnc2c1 (stereo not drawn) [Compound 174]
7. COc1cc2nccc(Oc3ccc([S@](C)(=N)=O)cc3)c2cc1F [Compound 114a]

1: 8.82; 2: 7.24; 3: 9.49; 4: 10.07; 5: 8.77; 6: 6.62; 7: 8.20

I need pKi for every entry listed below, if you could help.
1. COc1cc2nccc(OC[C@@H]3CCN([S@](C)(=N)=O)C3)c2cc1F [Compound 229b]
2. COc1cc2nccc(N3CCC4(CC3)CCN([S@@](C)(=N)=O)C4)c2cc1OC [Compound 208a]
3. COc1cccc2c(N3CC[C@H](C[S@@](C)(=N)=O)C3)ncnc12 [Compound 238a]

[8.44, 7.26, 6.59]

I need pKi for every entry listed below, if you could help.
1. COc1cc2ncc(C#N)c(Oc3ccc([S@@](C)(=N)=O)cc3)c2cc1F [Compound 44a]
2. COc1ccc2c(OCc3ccc([S@@](C)(=N)=O)cc3)ccnc2c1 [Compound 75a]
3. COc1cccc2c(N3CCC(O)(C[S@@](C)(=N)=O)CC3)ncnc12 [Compound 185a]
4. COc1cccc2c(N3CC[C@@H](C[S@](C)(=N)=O)C3)ncnc12 [Compound 239a]

1: 6.96; 2: 7.66; 3: 9.49; 4: 8.27

I need pKi for every entry listed below, if you could help.
1. COc1cc2nccc(N3CCC4(CC3)CCN([S@@](C)(=N)=O)C4)c2cc1Cl [Compound 156a]
2. COc1cc2ncnc(N3CCC4(CC3)CCN([S@](C)(=N)=O)C4)c2cc1OC [Compound 54b]

8.77
6.89

###

- SYSTEM NAME: ENPP-1 ECD (Homo sapiens (Human), UniProt P22413)
- ASSAY PROTOCOL: Assay 2: inhibition of ENPP1 hydrolysis of 2′,3′-cGAMP (AMP-Glo, […] enzyme)
- RECORDED CONDITIONS: Assay 2 (KI), inhibition of ENPP1 hydrolysis of 2′,3′-cGAMP; no unit in Table 18 (Table 17 legend for this assay uses nM)
Please provide measured Ki for the entries that follow.
Output should be the measured figure followed by the unit it is expressed in.

Record excerpt, results attached:
COc1ccc2c(Oc3ccc(S(=N)(=O)CC(C)(C)O)cc3)ccnc2c1 (centres unmarked) ... 1.1 nM
COc1ccc2c(N3CCC4(CC3)CCN(S(C)(=N)=O)C4)ccnc2c1 (centres unmarked) ... 0.14 nM
COc1ccc2c(Oc3ccc(S(C)(=N)=O)cc3)ccnc2n1 (centres unmarked) ... 150 nM
COc1cccc2c(N3CCC(CS(C)(=N)=O)CC3)ccnc12 (centres unmarked) ... 16 nM

// next item, Ki requested
Entry COc1ccc2c(Oc3ccc(S(C)(=N)=O)cc3)ccnc2c1 (centres unmarked) has what Ki? 1.1 nM

###

- SYSTEM NAME: ENPP1 on MDA-MB-231 cells (Homo sapiens (Human))
- ASSAY PROTOCOL: Assay 3: inhibition of ENPP1 hydrolysis of AMP p-nitrophenyl ester on MDA-MB-231 cells
REPORTED ENDPOINT: pKi
Numbers only, as −log10 of the molar value.

I need pKi for every entry listed below, if you could help.
1. COc1cccc2c(N3CCC(CS(C)(=N)=O)CC3)c(C#N)cnc12 (stereo not shown)
2. COc1cc2nccc(OCc3cccc(S(C)(=N)=O)c3)c2cc1Cl (stereo not shown)
3. COc1cc2nnc(C)c(N3CCC4(CC3)CCN(S(C)(=N)=O)C4)c2cc1Cl (stereo not shown)
4. COc1cc2ncnc(-c3ccc4c(c3)CN(S(C)(=N)=O)CC4)c2cc1OC (stereo not shown)
5. COc1cccc2c(N3CCC(O)(CS(C)(=N)=O)CC3)ncnc12 (stereo not shown)
6. COc1cc2nncc(N3CC4(CC(CS(C)(=N)=O)C4)C3)c2cc1OC (stereo not shown)

8.48
8.14
7.96
7.55
9.35
8.19

###

- SYSTEM NAME: ENPP-1 ECD (Homo sapiens (Human))
- ASSAY PROTOCOL: Assay 2: inhibition of ENPP1 hydrolysis of 2′,3′-cGAMP (AMP-Glo, […] enzyme)
- RECORDED CONDITIONS: Assay 2 (KI), inhibition of ENPP1 hydrolysis of 2′,3′-cGAMP; no unit in Table 18 (Table 17 legend for this assay uses nM)
Please provide measured Ki for the entries that follow.
Numbers only, in nM.

COc1cccc2c(N3CCC(CCS(C)(=N)=O)CC3)c(C#N)cnc12 (stereo not shown) ... 5.3
COc1cccc2c(N3CCC(O)(CS(C)(=N)=O)C4(CC4)C3)ncnc12 (stereo not shown) ... 40
COc1ccc2c(OCC3CCS(=N)(=O)CC3)ccnc2c1 (single isomer, unassigned) [Compound 107a] ... 27

// next item, Ki requested
Entry COc1ccc2c(OC3CCN(S(C)(=N)=O)CC3)ccnc2c1 (stereo not shown) has what Ki? 8

###

- SYSTEM NAME: ENPP-1 ECD (Homo sapiens (Human), UniProt P22413)
- ASSAY PROTOCOL: Assay 1: inhibition of ENPP1 hydrolysis of 2′,3′-cGAMP (AMP-Glo, […] enzyme)
- RECORDED CONDITIONS: read-out: Assay 1 (IC50); ENPP1 hydrolysis of 2′,3′-cGAMP, AMP-Glo
REPORTED ENDPOINT: IC50

Record excerpt, results attached:
COc1cc2ncnc(-c3ccc4c(c3)CN(S(C)(=N)=O)CC4)c2cc1OC (stereo not shown) ... < 10 nM
Cc1ccc2ncc(C#N)c(Oc3ccc(S(C)(=N)=O)cc3)c2c1 (stereo not shown) ... > 1000 nM
COc1cc2nccc(Oc3ccc([S@](C)(=N)=O)cc3)c2cc1OC ... > 1000 nM
COc1ccc2c(OCc3ccc(S(C)(=N)=O)cc3)ccnc2c1 (stereo not shown) ... < 10 nM
COc1ccc2c(Oc3ccc([S@@](C)(=N)=O)cc3)ccnc2c1 [Compound 80a] ... < 10 nM

I need IC50 for every entry listed below, if you could help.
1. CS(=N)(=O)c1ccc(Oc2c(C#N)cnc3cc(F)ccc23)cc1 (stereo not shown)
2. COc1cc2ncc(C#N)c(Oc3ccc([S@](C)(=N)=O)cc3)c2cc1F [Compound 44b]
3. COc1ccc2c(N3CCC(CCS(C)(=N)=O)CC3)ncnc2c1OC (stereo not shown)
4. CS(=N)(=O)Cc1ccc(-c2ccnc3ccccc23)cc1 (stereo not shown)

1. > 1000 nM
2. > 1000 nM
3. > 1000 nM
4. > 1000 nM

I need IC50 for every entry listed below, if you could help.
1. COc1ccc2c(Oc3ccc([S@](=N)(=O)C4CC4)cc3)ccnc2c1 [Compound 60b]
2. COc1cnc2c(Oc3ccc(S(C)(=N)=O)cc3)ccnc2c1 (stereo not shown)
3. COc1cc2ncc(C#N)c(N3CCC(CCS(C)(=N)=O)CC3)c2cc1F (stereo not shown)
4. CC[S@](=N)(=O)c1ccc(Oc2ccnc3cc(OC)ccc23)cc1 [Compound 103b]
5. COc1cccc2c(Oc3ccc(S(C)(=N)=O)cc3)ncnc12 (stereo not shown)
6. COc1cc2nccc(Oc3ccc([S@@](=N)(=O)C4CC4)cc3)c2cc1F [Compound 120a]

10 to 1000 nM
> 1000 nM
< 10 nM
< 10 nM
> 1000 nM
< 10 nM

I need IC50 for every entry listed below, if you could help.
1. COc1ccc2c(Oc3ccc([S@](C)(=N)=O)cc3)ccnc2c1 [Compound 80b]
2. COc1cc2nccc(OCc3ccc(S(C)(=N)=O)cc3)c2cc1F (stereo not shown)

1. 10 to 1000 nM
2. < 10 nM
